- SYSTEM TESTED: T1, IL-23-AVI (human, UniProt Q9NPF7 20-189; P29460 23-328)
- T1 construct: IL-23 p19 subunit, human; IL-12/IL-23 p40 subunit, human; Captured on streptavidin chips and beads, so biotinylation of the Avi tag is implied; also called Avi-tagged IL-23; recombinant IL-23
- T1 sequence (looked up) 1: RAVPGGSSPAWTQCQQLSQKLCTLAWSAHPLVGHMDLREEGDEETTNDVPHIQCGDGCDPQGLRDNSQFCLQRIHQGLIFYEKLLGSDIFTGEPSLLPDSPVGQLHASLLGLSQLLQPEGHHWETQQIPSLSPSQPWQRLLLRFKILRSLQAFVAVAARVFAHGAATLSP
- T1 sequence (looked up) 2: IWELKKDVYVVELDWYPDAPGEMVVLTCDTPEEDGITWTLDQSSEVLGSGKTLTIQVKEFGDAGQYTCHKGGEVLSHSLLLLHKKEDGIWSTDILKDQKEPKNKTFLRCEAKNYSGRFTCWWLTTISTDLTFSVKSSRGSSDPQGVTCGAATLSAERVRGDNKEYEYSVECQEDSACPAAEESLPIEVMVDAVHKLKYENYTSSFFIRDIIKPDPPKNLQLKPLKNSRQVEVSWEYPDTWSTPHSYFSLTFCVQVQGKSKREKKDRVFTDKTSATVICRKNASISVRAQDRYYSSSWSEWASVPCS
- MEASUREMENT NOTES: AlphaScreen or HTRF; AlphaLISA; IL-23-AVI (1.5 nM) pre-incubated with peptide 30 min, then FLAG-tagged IL-23R (3 nM); streptavidin donor and anti-FLAG acceptor beads; 25 mM HEPES pH 7.4, 150 mM NaCl, 0.02% Tween 20, 0.1% BSA; room temperature; n = 1
- ASSAY CONTEXT: both partners purified
Ends that are not written are not given here.
We begin with a simple list: items and their reported IC50.
The figure you give is taken to be in nM; do not add the unit.

BINDER | RESULT UNIT | NUMERIC READOUT
LECLYYLRWKVCDN (not fully specified (bridges); cysteine pairing not given here, selected from a peptide phage library against IL-23; Two cysteines; source: synthetic peptide (CPC Scientific)) [peptide 23–447 (free, chemically synthesized)] | nM | 6700

The reported value for GLRERCVRNYGHEFCQNWYW (selected from a peptide phage library against IL-23; Two cysteines; source: synthetic peptide (CPC Scientific)) [peptide 23–446 (free, chemically synthesized)] in terms of IC50 is 240

The reported value for QKITQCVYIIWTYPCLLNDV (selected from a peptide phage library against IL-23; Two cysteines; source: synthetic peptide (CPC Scientific)) [peptide 23–441 (free, chemically synthesized)] in terms of IC50 is 2500

The reported value for FTKEIDSWWLSLMSS (selected from a peptide phage library against IL-23; No cysteines, 15 residues; source: synthetic peptide (CPC Scientific)) [peptide 23–437 (free, chemically synthesized)] in terms of IC50 is 1400
